# Test system: olfactory system
# assay name: WUTC Odor Threshold Test (yes-no detection of odorant dilutions in water, signal detection analysis)
# Type: in vivo, human
# assay context: maximum of individual participant thresholds; in ppm
observation type: Estimated odorant threshold, Maximum
Answers are plain numbers.

Please supply Estimated odorant threshold, Maximum for each of the following items, keeping them in order.
1. Cc1ccc(O)cc1 [para-cresol]
2. CC1=CCC2CC1C2(C)C [Pinene, L-α-pinene]
3. COc1cc(C=O)ccc1O [Vanillin, vanillin]

5.28
795.338
339.932

Please supply Estimated odorant threshold, Maximum for each of the following items, keeping them in order.
1. CC(=O)OCCC(C)C [Isoamyl Acetate, isoamyl acetate]
2. CCO [Ethanol, ethanol]

1: 65.102; 2: 942.747

Data credit: patent US20150177202A1
